Test system: HT-29
protocol_details: Cytotoxicity against human HT-29 cells assessed as reduction in cell viability incubated for 48 hrs by MTT assay
Type: functional, cell-based
assay_conditions: HT-29, 48 h
measured_metric: pIC50
Conceptually, pIC50 converts a concentration in mol/L into minus its log10.

Example entries begin here.
| molecular_string | assayed_target | measured_metric | endpoint_result |
| --- | --- | --- | --- |
| CN(C)CCCN1C(=O)c2ccc3c4c(c(NCc5cn(CCO[C@@H]6O[C@H](CO)[C@H](O)[C@H](O)[C@H]6O)nn5)cc(c24)C1=O)C(=O)N(CCCN(C)C)C3=O | HT-29 | pIC50 | 6.30 |
| O=C1c2ccc3c4c(c(NCc5cn(CCO[C@H]6O[C@H](CO)[C@@H](O)[C@H](O)[C@@H]6O)nn5)cc(c24)C(=O)N1CCN1CCOCC1)C(=O)N(CCN1CCOCC1)C3=O | HT-29 | pIC50 | 5.07 |
| CN(C)CCCN1C(=O)c2ccc3c4c(c(NCc5cn(CCO[C@H]6O[C@H](CO)[C@@H](O)[C@H](O)[C@@H]6O)nn5)cc(c24)C1=O)C(=O)N(CCCN(C)C)C3=O | HT-29 | pIC50 | 6.37 |
| O=C1c2ccc3c4c(c(NCc5cn(CCO[C@@H]6O[C@H](CO)[C@@H](O)[C@H](O)[C@H]6O)nn5)cc(c24)C(=O)N1CCN1CCOCC1)C(=O)N(CCN1CCOCC1)C3=O | HT-29 | pIC50 | 5.76 |

Now examine the next entry.
## Input // pIC50 lookup, key: CN(C)CCCN1C(=O)c2ccc3c4c(c(NCc5cn(CCO[C@@H]6O[C@H](CO)[C@@H](O[C@H]7O[C@H](CO)[C@@H](O)[C@H](O)[C@H]7O)[C@H](O)[C@H]6O)nn5)cc(c24)C1=O)C(=O)N(CCCN(C)C)C3=O
## Output 6.32

----------
protocol_details: Selectivity index, ratio of IC50 for cytotoxicity against human MRC5 cells to IC50 for antileishmanial activity against Leishmania major (MHOM/IL/80/Friedlin) promastigotes
Type: toxicity, cell-based
assay_conditions: read-out: Selectivity Index
Could you mark each record Yes if its selectivity ratio falls strictly under 2, and No if it equals or exceeds it?

| molecular_string | discrete_label |
| --- | --- |
| O=C1c2ccc3c4c(c(NCc5cn(CCO[C@@H]6O[C@H](CO)[C@H](O)[C@H](O)[C@H]6O)nn5)cc(c24)C(=O)N1CCN1CCOCC1)C(=O)N(CCN1CCOCC1)C3=O | Yes |
| CN(C)CCCN1C(=O)c2ccc3c4c(c(NCc5cn(CCS[C@H]6O[C@H](CO)[C@@H](O)[C@H](O)[C@@H]6O)nn5)cc(c24)C1=O)C(=O)N(CCCN(C)C)C3=O | Yes |
| CN(C)CCCN1C(=O)c2ccc3c4c(c(NCc5cn(CCO[C@@H]6O[C@H](CO)[C@H](O)[C@H](O)[C@H]6O)nn5)cc(c24)C1=O)C(=O)N(CCCN(C)C)C3=O | Yes |
| O=C1c2ccc3c4c(c(NCc5cn(CCS[C@@H]6O[C@H](CO)[C@@H](O)[C@H](O)[C@H]6O)nn5)cc(c24)C(=O)N1CCN1CCOCC1)C(=O)N(CCN1CCOCC1)C3=O | Yes |

Moving on to the next compound.
## Input # TODO verify selectivity ratio < 2 strictly for this compound: CN(C)CCCN1C(=O)c2ccc3c4c(c(NCc5cn(CCS[C@@H]6O[C@H](CO)[C@@H](O[C@H]7O[C@H](CO)[C@@H](O)[C@H](O)[C@H]7O)[C@H](O)[C@H]6O)nn5)cc(c24)C1=O)C(=O)N(CCCN(C)C)C3=O
## Output No

----------
protocol_details: Selectivity index, ratio of IC50 for cytotoxicity against human MRC5 cells to IC50 for antileishmanial activity against Leishmania major (MHOM/IL/80/Friedlin) promastigotes
Type: toxicity, cell-based
assay_conditions: read-out: Selectivity Index
Known selectivity ratio of a selection of compounds
// return a plain number; no unit text

## Input // selectivity ratio lookup, key: CN(C)CCCN1C(=O)c2ccc3c4c(c(NCc5cn(CCS[C@@H]6O[C@H](CO)[C@@H](O)[C@H](O)[C@H]6O)nn5)cc(c24)C1=O)C(=O)N(CCCN(C)C)C3=O
## Output 2

## Input And for CN(C)CCCN1C(=O)c2ccc3c4c(c(NCc5cn(CCO[C@@H]6O[C@H](CO)[C@@H](O[C@H]7O[C@H](CO)[C@@H](O)[C@H](O)[C@H]7O)[C@H](O)[C@H]6O)nn5)cc(c24)C1=O)C(=O)N(CCCN(C)C)C3=O ?
## Output 2.3

## Input And for CN(C)CCCN1C(=O)c2ccc3c4c(c(NCc5cn(CCS[C@@H]6O[C@H](CO)[C@H](O)[C@H](O)[C@H]6O)nn5)cc(c24)C1=O)C(=O)N(CCCN(C)C)C3=O ?
## Output 2.1

## Input And for CN(C)CCCN1C(=O)c2ccc3c4c(c(NCc5cn(CCO[C@@H]6O[C@H](CO)[C@@H](O)[C@H](O)[C@H]6O)nn5)cc(c24)C1=O)C(=O)N(CCCN(C)C)C3=O ?
## Output 1.2

## Input And for O=C1c2ccc3c4c(c(NCc5cn(CCS[C@H]6O[C@H](CO)[C@@H](O)[C@H](O)[C@@H]6O)nn5)cc(c24)C(=O)N1CCN1CCOCC1)C(=O)N(CCN1CCOCC1)C3=O ?
## Output 1.1

## Input And for CN(C)CCCN1C(=O)c2ccc3c4c(c(NCc5cn(CCO[C@H]6O[C@H](CO)[C@@H](O)[C@H](O)[C@@H]6O)nn5)cc(c24)C1=O)C(=O)N(CCCN(C)C)C3=O ?
## Output 3.2
